Below is a list of entries, each paired with its recorded zone of inhibition at 20 µg/disc value.
Test system: C. albicans (ATCC 10231)
Assay: Disk diffusion antimicrobial test, C. albicans
Type: cell-based, Candida albicans
Settings: Candida albicans, ATCC10231, disk diffusion; yeast; 20 mg per disc (title), concentration 20 µg (footnote)
Method: The newly synthesized compounds were chosen to be evaluated in vitro towards a variety of pathogenic microorganisms; Gram-positive bacteria: S. aureus (ATCC 6538) and B. subtilis (ATCC 6633); Gram-negative bacteria: P. areuginosa (ATCC 27853) and E. coli (DSMZ 1058); yeast: C. albicans (ATCC 10231) and S. cerevisiae (ATCC 9080) and fungi: A. niger (NRRL A-326) using the disk diffusion method at a single dose of 20 µl. The results are shown in Table 1 as the growth inhibition zone (mm). […]
Write the answer as a number in mm, unit excluded.

| MOLECULE | zone of inhibition at 20 µg/disc / mm |
| --- | --- |
| O=C1Nc2ccccc2C12CC(c1c[nH]c3ccccc13)=NN2 (stereo not shown) [Compound 13a] | 18 |
| C[C@@H]1[C@H](O)[C@@H](C)/C=C/C=C/C=C/C=C/C=C/C=C/C=C/[C@H](O[C@@H]2O[C@H](C)[C@@H](O)[C@H](N)[C@@H]2O)C[C@@H]2O[C@](O)(C[C@@H](O)C[C@@H](O)[C@H](O)CC[C@@H](O)C[C@@H](O)CC(=O)O[C@H]1C)C[C@H](O)[C@H]2C(=O)O [Amphotericin B, amphotericin B, reference compound] | 23.5 |
| COc1c(C2=NNC3(C2)C(=O)Nc2ccccc23)c(O)c(OC)c2occc12 (stereo not shown) [Compound 12a] | 12 |

Qu. // fetch C. albicans (ATCC 10231) zone of inhibition at 20 µg/disc for CCn1cc(C2=NNC3(C2)C(=O)Nc2ccccc23)c2ccccc21 (stereo not shown) [Compound 13b]
Ans. 18

Qu. // fetch C. albicans (ATCC 10231) zone of inhibition at 20 µg/disc for COc1c(C2=NNC3(C2)C(=O)Nc2ccccc23)c(OC)c2ccoc2c1OC (stereo not shown) [Compound 12b]
Ans. 10

Qu. // fetch C. albicans (ATCC 10231) zone of inhibition at 20 µg/disc for CCOc1cc2occc2c(OC)c1C1=NNC2(C1)C(=O)Nc1ccccc12 (stereo not shown) [Compound 11c]
Ans. 25

Qu. // fetch C. albicans (ATCC 10231) zone of inhibition at 20 µg/disc for COc1c(C2=NNC3(C2)C(=O)Nc2ccccc23)c(O)cc2occc12 (stereo not shown) [Compound 11a]
Ans. 20
